Ref: patent US10654822B2

Format: in vivo, Sprague-Dawley rats
Settings: male rats, D+7 after oral tube-feeding of flocoumafen about 2.3 mg/kg (mixture of 4 stereoisomers), mean of three rats, liver
compounds and their reported Hepatic concentration

Compound	Hepatic concentration / ng/g
O=c1oc2ccccc2c(O)c1C1CC(c2ccc(OCc3ccc(C(F)(F)F)cc3)cc2)Cc2ccccc21 (single isomer, unassigned) [Enantiomer E4, flocoumafen]	2623
O=c1oc2ccccc2c(O)c1C1CC(c2ccc(OCc3ccc(C(F)(F)F)cc3)cc2)Cc2ccccc21 (single isomer, unassigned) [Enantiomer E1, flocoumafen]	0
O=c1oc2ccccc2c(O)c1C1CC(c2ccc(OCc3ccc(C(F)(F)F)cc3)cc2)Cc2ccccc21 (single isomer, unassigned) [Enantiomer E2, flocoumafen]	319
O=c1oc2ccccc2c(O)c1C1CC(c2ccc(OCc3ccc(C(F)(F)F)cc3)cc2)Cc2ccccc21 (single isomer, unassigned) [Enantiomer E3, flocoumafen]	647

----------
Format: in vivo, Sprague-Dawley rats
Details: male rats, D+1 after oral tube-feeding of flocoumafen about 2.3 mg/kg (mixture of 4 stereoisomers), mean of three rats, liver
compounds and their reported Hepatic concentration

Compound	Hepatic concentration (ng/g)
O=c1oc2ccccc2c(O)c1C1CC(c2ccc(OCc3ccc(C(F)(F)F)cc3)cc2)Cc2ccccc21 (single isomer, unassigned) [Enantiomer E2, flocoumafen]	3904
O=c1oc2ccccc2c(O)c1C1CC(c2ccc(OCc3ccc(C(F)(F)F)cc3)cc2)Cc2ccccc21 (single isomer, unassigned) [Enantiomer E4, flocoumafen]	8143
O=c1oc2ccccc2c(O)c1C1CC(c2ccc(OCc3ccc(C(F)(F)F)cc3)cc2)Cc2ccccc21 (single isomer, unassigned) [Enantiomer E1, flocoumafen]	196
O=c1oc2ccccc2c(O)c1C1CC(c2ccc(OCc3ccc(C(F)(F)F)cc3)cc2)Cc2ccccc21 (single isomer, unassigned) [Enantiomer E3, flocoumafen]	3301

----------
Format: in vivo, Sprague-Dawley rats
Details: female rats, D+3 after oral tube-feeding of flocoumafen about 2.3 mg/kg (mixture of 4 stereoisomers), mean of three rats, liver
Description: The configurational stereoisomers of flocoumafen are separated by high-pressure liquid chromatography using a LUX® Cellulose-4 chiral column (00F-4490-B0, Phenomenex, Le Pecq, France) as stationary phase and a mixture formed from acetonitrile (A) and water comprising 0.1% by volume of formic acid (B), with an A/B volume ratio of 92/8, as mobile phase with a flow rate of the liquid mobile phase in the chromatography column of 0.25 mL/minute. […]
Quantity Kind: Hepatic concentration (ng/g)

Compound	Reading Unit	Data Value
O=c1oc2ccccc2c(O)c1C1CC(c2ccc(OCc3ccc(C(F)(F)F)cc3)cc2)Cc2ccccc21 (single isomer, unassigned) [Enantiomer E3, flocoumafen]	ng/g	2734
O=c1oc2ccccc2c(O)c1C1CC(c2ccc(OCc3ccc(C(F)(F)F)cc3)cc2)Cc2ccccc21 (single isomer, unassigned) [Enantiomer E4, flocoumafen]	ng/g	7765
O=c1oc2ccccc2c(O)c1C1CC(c2ccc(OCc3ccc(C(F)(F)F)cc3)cc2)Cc2ccccc21 (single isomer, unassigned) [Enantiomer E1, flocoumafen]	ng/g	2692
O=c1oc2ccccc2c(O)c1C1CC(c2ccc(OCc3ccc(C(F)(F)F)cc3)cc2)Cc2ccccc21 (single isomer, unassigned) [Enantiomer E2, flocoumafen]	ng/g	2522
